target: human Claudin18.2 (human); assay: cell-based or functional assay
With a cut-off of 900%, any CDC % Relative activity strictly below it is called criterion met; any CDC % Relative activity meeting it or above is called criterion not met.

A selection of reference data follows.
binder: chimeric 232C5E3 (antibody, human IgG1, kappa, V domains shown, chimeric, human IgG1/kappa constant regions; also called 232C5E3-Chimeric) VH: QAYLQQSGAELVRSGASVKMSCKASGYTFTSHNIHWIKQTPGKGLEWIGYIYPGNGGTNYNQKFKAKATLTADTSSSTAYMQISSLTSEDSAVYFCARDYYGNSFAYWGQGTLVTVSA VL: DIMMTQSPSSLTETAGEKVSMSCKSSQSLLNSGNQKNYLTWYQQKPGQPPKLLIYWASTRESGVPDRFSGSGSGTDFTLTISSVQAEDLAVYYCQNGYRFPFTFGAGTKLELKR
category: criterion not met

binder: chimeric 419B5G9 (antibody, human IgG1, kappa, V domains shown, chimeric, human IgG1/kappa constant regions) VH: DVQLVESGGGLVQPGGSRKLSCAASGFTFSTFGMHWVRQAPEKGLEWVAYISGGSTTIFYADTVKGRFTISRDNPKNTLFLQMTSVRSEDTAMYYCARFYYGNSFAYWGPGTLVTVST VL: DIVMTQSPSSLTVTAGEKVTMSCKSSQSLLNSGNQKNYLTWYQQKPGQPPKMLIYWASTRESGVPDRFTGSGSGTDFTLTISSVQAEDLAVYYCQNAYSYPLTFGAGTKLELKR
category: criterion not met

binder: chimeric 273C10E5 (antibody, human IgG1, kappa, V domains shown, chimeric, human IgG1/kappa constant regions) VH: QVQLQQSGAELVKPGASVKLSCKASGYTFTSFGINWLRQRPEQGLEWIGWIFPGDGNSKYNENFKGKATLTTDKSSSTAYMQVTRLTSEDSAVYFCARFYYGNSFANWGQGTLVTVSA VL: DIVMTQSPSSLTVTAGEKVTMSCKSSQSLLNSGNQKNYLTWYQQKPGQPPKLLIYWAATRESGVPDRFAGSGSGTDFTLTISSVQAEDLAVYYCQNDYFYPFTFGAGTKLELKR
category: criterion met

binder: chimeric 265E6G2 (antibody, human IgG1, kappa, V domains shown, chimeric, human IgG1/kappa constant regions) VH: QAYLQQSGAELVRSGASVKMSCKASGYTFTSYNMHWVKQTPGQGLEWIGYIYPGNGGTNYNQKFKGKATLTADTSSSTAYMQISSLTSEDSAVYFCARDYYGNSFAYWGQGTLVTVSA VL: DLVMTQSPSSLTVTAGEKVTMSCKSSQSLLNSGNQKNYLTWYQQKPGQPPKLLIYWASTRESGVPDRFTGSGSGTDFTLTISNIQAEDLAVYYCQNDYSYPLPFGAGTKLELRR
category: criterion met

Prompt line: For chimeric 418D2F9 (antibody, human IgG1, kappa, V domains shown, chimeric, human IgG1/kappa constant regions) VH: DVQLVESGGGLVQPGGSRKLSCAASGFTFSSFGMHWVRQAPEKGLEWVAYINTGSSTIYYADTVKGRFTISRDNPKNTLFLQMTSLRSEDTAMYYCARIYYGNSFVYWGQGTLVTVSA VL: DIVMTQSPSSLTVTAGEKVTMSCKSSQSLLNSGNQKNYLTWYQQKPGQPPKLLIYWASTRESGVPDRFTGSGSGTDFTLTISSVQAEDLAVYYCQNDYSYPLTFGAGTKLELKR , is the recorded CDC % Relative activity below the cut-off of 900%?
Response line: criterion met

These entries and their values trace back to patent US20220073643A1.
